B1: RPAIN (parent)
chain: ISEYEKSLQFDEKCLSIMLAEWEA

- Variants of: B1
- assay-protocol: protein stability index of a GFP-peptide fusion (GPS, HEK-293T) (PSI 1-6); higher = more stable;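 note: lentivirally expressed fusions sorted by FACS into six bins by GFP to DsRed ratio, PSI derived from sequencing read proportions per bin multiplied by bin number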
- condition-label: c terminus: a fixed tail appended
Exercise: state measured protein stability index for each of the variants provided.

- I17Q: 2
- L19P: 4.37
- I1E: 2.04
- Y4P: 1.41
- S7E: 1.48

Report protein stability index for each item below.
1. A20Y
2. L8E
3. W22Y
4. E21K

Outgoing:
1. 2.08
2. 3.45
3. 1.69
4. 1.47

Report protein stability index for each item below.
1. F10K
2. M18R

Outgoing:
3.53
1.93
